// provenance: the supplement of paper PMC11908140

B1: library; numbered along this chain (parent)
chain: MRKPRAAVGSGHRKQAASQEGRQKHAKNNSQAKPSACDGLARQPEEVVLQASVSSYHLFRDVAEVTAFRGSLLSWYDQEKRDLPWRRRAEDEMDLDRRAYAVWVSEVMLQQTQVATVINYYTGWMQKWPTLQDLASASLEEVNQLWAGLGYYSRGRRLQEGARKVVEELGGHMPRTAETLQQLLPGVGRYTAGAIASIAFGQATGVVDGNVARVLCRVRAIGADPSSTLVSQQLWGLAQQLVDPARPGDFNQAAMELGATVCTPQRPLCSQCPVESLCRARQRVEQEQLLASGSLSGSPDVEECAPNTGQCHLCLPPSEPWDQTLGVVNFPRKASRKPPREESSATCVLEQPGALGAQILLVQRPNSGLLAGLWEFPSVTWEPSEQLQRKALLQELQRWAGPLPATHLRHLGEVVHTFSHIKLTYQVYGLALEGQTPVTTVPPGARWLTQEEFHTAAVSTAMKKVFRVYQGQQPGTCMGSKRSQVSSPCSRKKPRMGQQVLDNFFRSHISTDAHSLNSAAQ

variants of: B1; assay: 8OG:A repair function score (normalized; synonymous = 0, nonsense = -1) (normalized log-likelihood score); higher = more repair activity (WT-like); details: with 8OG:A DNA repair reporter (GFP) in HEK-293 MUTYH KO cells;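 note: cells sorted at 72 h after reporter transfection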
# 8OG:A repair function score per record follows
endpoint: 8OG:A repair function score

{"columns": ["mutation.notation", "observed.value"],
 "data": [
  ["C304V", -0.331],
  ["Q126S", 0.0362],
  ["D77F", -0.0355],
  ["S136Q", -0.0528],
  ["Q265C", -0.0499],
  ["N210H", -0.833],
  ["C278F", -1.07],
  ["R409L", 0.0499],
  ["Q252I", -0.942],
  ["F505T", 0.0174],
  ["L430A", -0.143],
  ["G444L", -0.255],
  ["P316I", -0.253],
  ["Q111H", -0.591],
  ["V65E", -0.196],
  ["C262Q", -1.27],
  ["A223S", -0.27],
  ["S231R", 0.201],
  ["L360S", -1.32],
  ["Y56M", 0.00205],
  ["V468E", -0.259],
  ["L430C", -0.0232],
  ["G148P", -1.1],
  ["L149K", -1.17],
  ["W235D", -0.452],
  ["P306K", -0.0963],
  ["C311Y", -0.394],
  ["Q111W", -0.869],
  ["Y56L", 0.00637],
  ["V362K", -0.0434],
  ["L370C", -0.0696],
  ["P365I", 0.146],
  ["Y152F", -0.371],
  ["Q132D", 0.0351],
  ["E140A", -0.0255],
  ["G258S", -1.05],
  ["Q286W", "-7.92e-05"],
  ["Y56E", -0.0123],
  ["P488S", 0.00249],
  ["I421E", -0.385],
  ["A457D", -0.44],
  ["G222W", -0.349],
  ["E46L", -0.211],
  ["Y425L", -0.213],
  ["L83P", -0.673],
  ["M255P", -1],
  ["T204D", -0.103],
  ["R279F", -0.277],
  ["P247Q", -0.968],
  ["A177S", -0.1],
  ["V47R", -0.00231],
  ["I221G", -0.993],
  ["Y469N", -0.738],
  ["A400F", 0.262],
  ["V458M", -0.204]
]}
